Tested on: pathogenic bacteria
assay_notes: MIC by microdilution broth method (NCCLS M7-A4), in vitro antibacterial activity
Assay type: cell-based
condition_description: Staphylococcus aureus, Organism A: Staphylococcus aureus OC4172; read-out: MIC
Listed here: items and their measured MIC.
Lab book: enter the figure in µg/mL, no units written.

Record excerpt, results attached:
| molecule | MIC / µg/mL |
| --- | --- |
| COc1c(N2CCC(=CCN)CC2)c(F)cc2c(=O)c(C(=O)O)cn(C3CC3)c12 | 0.06 |
| NCC(Cl)=C1CN(c2nc3c(cc2F)c(=O)c(C(=O)O)cn3C2CC2)C1 | 0.06 |
| CC1COc2c(N3CCC(=C(F)CN)CC3)c(F)cc3c(=O)c(C(=O)O)cn1c23 (stereo not drawn) | 0.25 |
| CNCC(F)=C1CN(c2c(F)cc3c(=O)c(C(=O)O)cn(-c4nc(N)c(F)cc4F)c3c2Cl)C1 | 0.06 |
| C=CC(Cl)=C1CCN(c2nc3c(cc2F)c(=O)c(C(=O)O)cn3C2CC2)CC1 | 0.5 |

GET /values?readout=MIC&item= NCC(Cl)=C1CCN(c2c(F)cc3c(=O)c(C(=O)O)cn(-c4nc(N)c(F)cc4F)c3c2Cl)CC1
0.06

Let us now turn to C/C(CN)=C1\CCCN(c2cc3c(cc2F)c(=O)c(C(=O)O)cn3C2CC2)C1
0.12

Let us now turn to COc1c(N2CCC(=C(Cl)CN)CC2)c(F)cc2c(=O)c(C(=O)O)cn(C3CC3)c12
0.015

Let us now turn to NC/C=C1/CCCN(c2nc3c(cc2F)c(=O)c(C(=O)O)cn3C2CC2)C1
0.12

Let us now turn to CCOC(=O)OCC(F)=C1CCN(c2nc3c(cc2F)c(=O)c(C(=O)O)cn3C2CC2)CC1
0.5

Let us now turn to NC/C=C1\CCCN(c2c(F)cc3c(=O)c(C(=O)O)cn(-c4nc(N)c(F)cc4F)c3c2Cl)C1
0.25

Let us now turn to NCC(F)=C1CCN(c2nc3c(cc2F)c(=O)c(C(=O)O)cn3C2CC2)CC1
0.03

Let us now turn to C[C@H]1COc2c(N3CCC(=C(F)CN(C)C)CC3)c(F)cc3c(=O)c(C(=O)O)cn1c23
0.5
